B1: TRIM39 (parent)
chain: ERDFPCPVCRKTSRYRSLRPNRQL

# Variants of: B1
# measurement-description: protein stability index of a GFP-peptide fusion (GPS, HEK-293T) (PSI 1-6); higher = more stable;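 also: lentivirally expressed fusions sorted by FACS into six bins by GFP to DsRed ratio, PSI derived from sequencing read proportions per bin multiplied by bin number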
# protocol-conditions: c terminus: a fixed tail appended
Assignment: determine reported protein stability index for the given variants.
One number for each entry.

Exercise: Find the recorded protein stability index belonging to P5S and report it.
Key: 2.04

Exercise: Find the recorded protein stability index belonging to Y15M and report it.
Key: 1.54

Exercise: Find the recorded protein stability index belonging to R22L and report it.
Key: 1.83

Exercise: Find the recorded protein stability index belonging to T12W and report it.
Key: 2.44

Exercise: Find the recorded protein stability index belonging to K11I and report it.
Key: 1.21

Provide reported protein stability index for each item, in the same order as listed.
1. R10I
2. L24Q
3. K11F

Key:
1: 2.6; 2: 3.08; 3: 1.88

Provide reported protein stability index for each item, in the same order as listed.
1. D3E
2. R2N
3. R2C
4. L24R
5. P5I
6. R16C
7. E1T

Key:
[1.64, 1.86, 2.01, 3.37, 2.91, 2.47, 2.71]

Provide reported protein stability index for each item, in the same order as listed.
1. P7R
2. R22T
3. P20Y
4. P5M
5. D3C

Key:
1: 2.88; 2: 2.04; 3: 1.84; 4: 2.26; 5: 2.08

Provide reported protein stability index for each item, in the same order as listed.
1. F4I
2. P7G
3. E1M

Key:
2.35
2.38
2.16

Provide reported protein stability index for each item, in the same order as listed.
1. R16F
2. Q23H
3. L18I
4. T12K
5. P20W
6. C6S
7. R2P
8. T12Q

Key:
1: 2.57; 2: 3.18; 3: 1.81; 4: 2.64; 5: 1.84; 6: 3.17; 7: 1.78; 8: 1.6

Provide reported protein stability index for each item, in the same order as listed.
1. Y15R
2. S17Q
3. E1D
4. L18G

Key:
2.65
1.86
2.4
2.34

Provide reported protein stability index for each item, in the same order as listed.
1. C6I
2. N21K
3. R2S
4. F4T
5. P20C
6. P7K

Key:
[3.24, 2.78, 1.9, 1.82, 2.44, 2.6]

Provide reported protein stability index for each item, in the same order as listed.
1. E1C
2. S13V
3. R2A
4. P5T

Key:
[2.2, 2.1, 2.13, 2.93]
